test system: M14; assay: NCI tumour cell line growth inhibition, 48 h
The source made the active and inactive calls. No stated cut-off is given here; in the data, active = GI50 up to about 1.1 µM and inactive = higher.
Outcome field: choose from 1 (yes) (active), 0 (no) (inactive)

INPUT: # outcome recorded in this test, key = CC1(C)OCC(C2CCC3(C)C4=CCC5C(C)(C)C(O)CCC5(C)C4CCC23C)CC(O)C1O (stereo not drawn)
OUTPUT: 0 (no)

INPUT: Moving on to COC[C@@H](Cc1ccc(OC)c(OC)c1)[C@@H](COC)Cc1ccc(OC)c(OC)c1
OUTPUT: 0 (no)

INPUT: Moving on to COc1cc(C2CC(C)(N3CCOCC3)Oc3cc4c(cc32)OCO4)cc(OC)c1OC (stereo not drawn)
OUTPUT: 1 (yes)

INPUT: Moving on to O=C1COc2cc3c(cc2N1)SCC(=O)N3
OUTPUT: 0 (no)

INPUT: Moving on to COC1(CC[C@H](C)COC2OC(CO)C(O)C(O)C2O)O[C@H]2C[C@H]3[C@@H]4CC=C5C[C@@H](OC6OC(CO)C(OC7OC(C)C(O)C(O)C7O)C(O)C6OC6OC(C)C(O)C(O)C6O)CC[C@]5(C)[C@H]4CC[C@]3(C)[C@H]2[C@@H]1C (stereo partly drawn)
OUTPUT: 0 (no)

====

tested on: BT-549; experiment: NCI tumour cell line growth inhibition, 48 h
Active and inactive are the calls of the source. Cut-off read from the data, not from the text of the source: active = GI50 up to about 1.1 µM and inactive = higher.
measured.parameter: GI50

[
  {
    "compound": "CCOc1ncn(-c2ccc(NC(=S)NC3OC(CO)C(O)C(O)C3O)cc2)n1 (centres undefined)",
    "GI50": "> 100 µM (inactive)"
  }
]

INPUT: I'd like to know its GI50. The compound in question is NC1C2C(CC(=O)O)OCC=C3CN4CCC1(C(=O)C(=O)O)C4CC32 (centres undefined)
OUTPUT: > 100 µM (inactive)

INPUT: Moving on to O=c1c2ccccc2[nH]n1Cc1ccccc1
OUTPUT: > 100 µM (inactive)

INPUT: Moving on to NCCN(CCN(C(=O)Nc1ccccc1)c1ccccc1)C(=O)Nc1ccccc1
OUTPUT: 22.7 µM (inactive)

====

test system: HCC 2998; assay: NCI tumour cell line growth inhibition, 48 h
Active and inactive are the calls of the source. No stated cut-off is given here; in the data, active = GI50 up to about 1.1 µM and inactive = higher.
Reported GI50 values are given for each entry in this list.

Here is how some molecules turned out for GI50.
[
  {
    "molecule": "CCOc1ccccc1/N=N/C1C(=O)N(C(=O)CC(=O)Nc2ccccc2C)N=C1C (centres undefined)",
    "GI50": "> 100 µM (inactive)"
  },
  {
    "molecule": "Clc1sc(Cl)c2c1[C@@H](Cl)C[C@@H]2Cl",
    "GI50": "63.4 µM (inactive)"
  },
  {
    "molecule": "COCn1c(C)c(C)c2c(=O)oc(=O)[nH]c21",
    "GI50": "> 100 µM (inactive)"
  }
]

We next turn to a different molecule, shown below.
INPUT: I'd like to know its GI50. The molecule in question is Nc1nc(Nc2cc(F)c(Cl)c(F)c2)cc(=O)[nH]1
OUTPUT: 15.9 µM (inactive)

====

test system: MOLT-4; assay: NCI tumour cell line growth inhibition, 48 h
Activity calls are given as the source filed them. Rule as the data show it: active = GI50 up to about 1.1 µM and inactive = higher.
measured.parameter: GI50

Here is how some compounds turned out for GI50.
[
  {
    "compound": "NCCCCNc1ccc2c(=O)[nH][nH]c(=O)c2c1",
    "result": "> 100 µM (inactive)"
  },
  {
    "compound": "CN(NC(=O)c1cccs1)C1=NCCCN1",
    "result": "> 100 µM (inactive)"
  },
  {
    "compound": "Cc1c(N(Cc2ccccc2)Cc2ccccc2)nc(S(C)(=O)=O)nc1S(C)(=O)=O",
    "result": "2.11 µM (inactive)"
  },
  {
    "compound": "O=C(CCc1cc(O)cc(O)c1)NCCc1cc(O)cc(OCc2ccccc2)c1",
    "result": "28.9 µM (inactive)"
  },
  {
    "compound": "CSCCOC(=O)C(=[N+]=[N-])c1ccc([N+](=O)[O-])cc1",
    "result": "> 100 µM (inactive)"
  }
]

INPUT: I'd like to know its GI50. The compound in question is COc1cccc([C@H]2C/C(=N\NC(=O)C(=O)N[C@@H](C)c3ccccc3)c3ccccc3N2)c1
OUTPUT: > 10 µM (inactive)

INPUT: Moving on to COC1(C)/C=N/CC(C)(C)NC(=O)C(C)(OC)/C=N/CC(C)(C)NC1=O (stereo not drawn)
OUTPUT: > 10 µM (inactive)

INPUT: Moving on to CCCOC(=O)c1cc(C(=CCC[C@H]2CC[C@@]3(C)[C@@H](CC[C@@H]4[C@@H]3CC[C@]3(C)[C@@H](C(C)CCCC(C)C)CC[C@@H]43)C2)c2cc(Cl)c(O)c(C(=O)OCCC)c2)cc(Cl)c1O (stereo partly drawn)
OUTPUT: > 50 µM (inactive)

====

test system: NCI-H460; assay: NCI tumour cell line growth inhibition, 48 h
Activity calls are given as the source filed them. No stated cut-off is given here; in the data, active = GI50 up to about 1.1 µM and inactive = higher.
Outcome field: choose from active, inactive

Previously resolved entries follow.
[
  {
    "compound": "CN1CCN(C(=S)N(C(=O)c2ccc(Cl)cc2)c2ccccc2)CC1",
    "tgt": "NCI-H460",
    "assigned.class": "inactive"
  },
  {
    "compound": "C/C(=N/NC(=S)Nc1ccc(Cl)cc1)c1cccc(/C(C)=N\\NC(=S)Nc2ccc(Cl)cc2)n1",
    "tgt": "NCI-H460",
    "assigned.class": "inactive"
  },
  {
    "compound": "COc1cc(OC)c2nc(C)c3c(c2c1)SCC3",
    "tgt": "NCI-H460",
    "assigned.class": "inactive"
  },
  {
    "compound": "CC(C)c1cc(=O)[nH]c2cc(N)ccc12",
    "tgt": "NCI-H460",
    "assigned.class": "inactive"
  },
  {
    "compound": "C[N+]1(CCC(=O)c2ccccc2)CCC2CCC(C2)C1 (stereo unspecified)",
    "tgt": "NCI-H460",
    "assigned.class": "inactive"
  }
]

INPUT: # outcome recorded in this test, key = O=[N+]([O-])/C(C(Cl)=C(Cl)Cl)=C(/Nc1cccc2cccnc12)n1nnc2ccccc21
OUTPUT: inactive

INPUT: Moving on to CCOC(=O)c1cc(C)n(CN(CCO)Cn2nc(C(=O)OCC)cc2C)n1
OUTPUT: inactive

INPUT: Moving on to Clc1sc(Cl)c2c1[C@@H](Cl)C[C@@H]2Cl
OUTPUT: inactive

====

tested on: DU-145; experiment: NCI tumour cell line growth inhibition, 48 h
Activity calls are given as the source filed them. Cut-off read from the data, not from the text of the source: active = GI50 up to about 1.1 µM and inactive = higher.
Reported GI50 values are given for each entry in this list.

[
  {
    "molecule": "COc1ccc(/C=C2\\C=Cc3ccccc32)cc1OC",
    "tgt": "DU-145",
    "measured.parameter": "GI50",
    "result": "> 100 µM (inactive)"
  },
  {
    "molecule": "Nc1cc2[nH]cnc2c(=O)[nH]1 [DEZAGUANINE]",
    "tgt": "DU-145",
    "measured.parameter": "GI50",
    "result": "5.43 µM (inactive)"
  },
  {
    "molecule": "CN(C)c1ccc(C2CC(C)(O)Oc3cc4c(cc32)OCO4)cc1 (stereo not given)",
    "tgt": "DU-145",
    "measured.parameter": "GI50",
    "result": "> 100 µM (inactive)"
  }
]

INPUT: API: value(readout= GI50, system= DU-145, query= O=C(CCc1cc(O)cc(O)c1)NCCc1cc(O)cc(OCc2ccccc2)c1 )
OUTPUT: 33.1 µM (inactive)

INPUT: Moving on to COc1cc(/C=C/c2ccc(O)c(OC)c2)cc(OC)c1
OUTPUT: 23.1 µM (inactive)

====

test system: EKVX; assay: NCI tumour cell line growth inhibition, 48 h
The source made the active and inactive calls. Rule as the data show it: active = GI50 up to about 1.1 µM and inactive = higher.
measured.parameter: GI50

Here is how some molecules turned out for GI50.
[
  {
    "molecule": "C=C[C@]1(C)C[C@@H](OC(=O)CO)[C@@]2(C)[C@H](C)CC[C@]3(CCC(=O)[C@H]32)[C@@H](C)[C@@H]1O",
    "result": "> 100 µM (inactive)"
  },
  {
    "molecule": "CCc1n[nH]c(=O)n1-n1c(C)ccc1C",
    "result": "> 100 µM (inactive)"
  }
]

INPUT: API: value(readout= GI50, system= EKVX, query= CCCn1cc2c3c(cccc31)C1C=C(C)CN(C)C1C2 (stereo not drawn) )
OUTPUT: 18 µM (inactive)

====

tested on: KM12; assay: NCI tumour cell line growth inhibition, 48 h
Activity calls are given as the source filed them. Rule as the data show it: active = GI50 up to about 1.1 µM and inactive = higher.
Outcome field: choose from Yes for active, No for inactive

Previously resolved entries follow.
[
  {
    "molecule": "CNC(=O)N(C)C(=O)c1ccccc1C(=O)N(C)C(=O)NC",
    "assigned.class": "No"
  },
  {
    "molecule": "COc1cc(OC)c2nc(C)c3c(c2c1)SCC3",
    "assigned.class": "No"
  },
  {
    "molecule": "COc1cccc([C@H]2C/C(=N\\NC(=O)C(=O)N[C@@H](C)c3ccccc3)c3ccccc3N2)c1",
    "assigned.class": "Yes"
  },
  {
    "molecule": "CCCC[C@H](CCc1ccccc1)N(C(=O)OC)N1CCC[C@H]1COC",
    "assigned.class": "No"
  },
  {
    "molecule": "COC(=O)NC(=O)c1cn(C2CCCCC2)c(=O)[nH]c1=O",
    "assigned.class": "No"
  }
]

INPUT: # outcome recorded in this test, key = CCOC(=O)c1oc2c(OC)cc(Cl)c3c2c1CCC3
OUTPUT: No

INPUT: Moving on to CCC(O)C1Cc2c(C)cc3c(c2O1)C(=O)c1ccccc1C3=O (configuration not stated)
OUTPUT: No

INPUT: Moving on to O=c1[nH]nc(Cn2c3ccc(Br)cc3c3nc4ccccc4nc32)n1C1CCCCC1
OUTPUT: No

INPUT: Moving on to CN(C)c1ccc(-c2c(C#N)c(S)n(NS(=O)(=O)c3ccccc3)c(=O)c2C#N)cc1
OUTPUT: No

INPUT: Moving on to COc1ccccc1/C=C(\C#N)C(=O)c1ccccc1
OUTPUT: No
